System: rat hepatocytes
ASSAY NOTES: Hepatocyte assay to determine the metabolic stability
Assay type: in vitro ADME
EXPERIMENTAL PARAMETERS: after incubation with rat hepatocytes
PARAMETER: CLblood, calculated blood clearance (well stirred model) (mL/min/kg)

[C-]#[N+]C1=C(C)N(c2cccc(C(F)(F)F)c2)C(=O)N[C@@H]1c1ccc(C#N)cc1[S@+](C)[O-] (single isomer, unassigned; diastereomer 1) [Example 43 (Diastereomer 1)] :: 21.7
CC1=C(C#N)[C@@H](c2ccc(C#N)cc2S(C)(=O)=O)N(S(=O)(=O)c2ccc(F)cc2)C(=O)N1c1cccc(C(F)(F)F)c1 :: 12
CC1=C(C#N)[C@@H](c2ccc(C#N)cc2S(C)(=O)=O)N(CC#N)C(=O)N1c1cccc(C(F)(F)F)c1 :: 6.7

P. CCS(=O)(=O)N1C(=O)N(c2cccc(C(F)(F)F)c2)C(C)=C(C#N)[C@H]1c1ccc(C#N)cc1S(C)(=O)=O
Q. CC1=C(C#N)[C@@H](c2ccc(C#N)cc2S(C)(=O)=O)N(c2cccc(C(F)(F)F)c2)C(=O)N1c1cccc(C(F)(F)F)c1
R. CCS(=O)(=O)c1cc(C#N)ccc1[C@@H]1C(C#N)=C(C)N(c2cccc(C(F)(F)F)c2)C(=O)N1C
*Q* Would you mind ranking these molecules by ascending CLblood, calculated blood clearance (well stirred model)? Please list the labels according to the requested order.
*A* P, Q, R
(P: 6.7 mL/min/kg, Q: 10 mL/min/kg, R: 15 mL/min/kg)
